- STUDY_TARGET: 5-hydroxytryptamine receptor 1A (Homo sapiens, UniProt P08908)
- Sequence (P08908 whole entry): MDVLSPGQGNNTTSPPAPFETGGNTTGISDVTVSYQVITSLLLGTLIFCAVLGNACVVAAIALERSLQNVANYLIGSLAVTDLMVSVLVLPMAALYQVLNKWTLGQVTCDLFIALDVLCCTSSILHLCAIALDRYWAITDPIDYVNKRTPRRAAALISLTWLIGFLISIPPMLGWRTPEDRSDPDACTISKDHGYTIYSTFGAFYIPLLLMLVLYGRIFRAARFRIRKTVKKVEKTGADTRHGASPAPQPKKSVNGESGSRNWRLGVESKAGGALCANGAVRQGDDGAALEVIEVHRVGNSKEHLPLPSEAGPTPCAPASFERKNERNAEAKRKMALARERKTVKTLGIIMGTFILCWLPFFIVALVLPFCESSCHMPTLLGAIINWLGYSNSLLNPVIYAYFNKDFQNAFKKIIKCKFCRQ
- ASSAY: biochemical
- Description: Displacement of [3H]-8-OH-DPAT from human 5-HT1AR expressed in HEK293 cell membranes after 1 hr by microbeta counting method
TEST_READOUT: log10 Ki (log10 of the value in nM)
Annotation: log10 of Ki, nM basis.

Here is how some molecules turned out for log10 Ki.
| STRUCTURE_SMILES | VALUE |
| --- | --- |
| O=S(=O)(c1cncc2ccccc12)N1CCCCC[C@H]1CCN1CCN(c2cccc3sccc23)CC1 | 0.90 |
| O=S(=O)(c1cccc2ncccc12)N1CCC[C@H]1CCN1CCN(c2cccc3[nH]ccc23)CC1 | 1.15 |
| O=S(=O)(c1cccc2ncccc12)N1CCC[C@H]1CCN1CCN(c2cccc3sccc23)CC1 | 1.11 |
| O=S(=O)(c1cncc2ccccc12)N1CCC[C@H]1CCN1CCC(c2noc3cc(F)ccc23)CC1 | 2.05 |
| O=S(=O)(c1cccc2cnccc12)N1CCC[C@@H]1CCN1CCN(c2nsc3ccccc23)CC1 | 1.20 |

In: Quickly give me recorded log10 Ki for O=S(=O)(c1cccc2ncccc12)N1CCCCC[C@H]1CCN1CCN(c2cccc3sccc23)CC1
Out: 1.08

In: Quickly give me recorded log10 Ki for O=S(=O)(c1cccc2ncccc12)N1CCC[C@H]1CCN1CCN(c2noc3ccccc23)CC1
Out: 2.25

In: Quickly give me recorded log10 Ki for O=S(=O)(c1ccnc2ccccc12)N1CCCCC[C@H]1CCN1CCN(c2nsc3ccccc23)CC1
Out: 1.70

In: Quickly give me recorded log10 Ki for O=S(=O)(c1cccc2ncccc12)N1CCCC[C@@H]1CCN1CCN(c2cccc3sccc23)CC1
Out: 1.18

Each recorded value in this set is attributed to ChEMBL document CHEMBL4229332.
